The entries below are paired with their reported CC50.
test-description: in vitro
condition-description: African green monkey
Counter-ions that a name gives are not always drawn. *1 amine or outer side, *2 acyl side, *3 side chain or, on linkers, in order; H or OH if unused. Where a SMILES comes first, the peptide text is derived from it. Bridges are numbered along the chain shown (N, C = ends). [ ]: non-standard residue; d: D form. The star is where a group is joined. pTerphenylCO(4''-OnC5H11) = CCCCCOc1ccc(-c2ccc(-c3ccc(C(=O)*)cc3)cc2)cc1; Orn(4R-OH,5R-OH) = O=C([C@H](C[C@@H](O)[C@@H](O)N[*:3])N[*:1])[*:2]; hTyr(3S-OH,4S-OH) = N[C@H](C(=O)O)[C@H](O)[C@@H](O)c1ccc(O)cc1; Pro(3S-OH,4S-Me) = C[C@H]1CN[C@H](C(=O)O)[C@H]1O; Hyp = O=C(O)[C@@H]1C[C@@H](O)CN1
Field format: number, assumed µM, no unit text.

Below are worked cases with known answers.
| molecule | value-kind | recorded-value |
| --- | --- | --- |
| CNCCCC1c2ccccc2C=Cc2ccccc21 [Protriptyline hydrochloride] | CC50 | 12.6 |
| Oc1c(Cl)cc(Cl)c2cccnc12 | CC50 | 7.08 |
| Cc1ccc(-c2cc(C(F)(F)F)nn2-c2ccc(S(N)(=O)=O)cc2)cc1 | CC50 | 15.8 |

### Prompt Which value of CC50 has been reported for "COc1ccc2cc1Oc1ccc(cc1)C[C@H]1c3c(cc4c(c3Oc3cc5c(cc3OC)CCN(C)[C@@H]5C2)OCO4)CCN1C" in the records?
### Response 11.2

### Prompt Which value of CC50 has been reported for CCCCCOc1ccc(-c2ccc(-c3ccc(C(=O)N[C@H]4C[C@@H](O)[C@@H](O)NC(=O)[C@@H]5[C@@H](O)[C@@H](C)CN5C(=O)[C@H]([C@@H](C)O)NC(=O)[C@H]([C@H](O)[C@@H](O)c5ccc(O)cc5)NC(=O)[C@@H]5C[C@@H](O)CN5C(=O)[C@H]([C@@H](C)O)NC4=O)cc3)cc2)cc1 [Anidulafungin] ({pTerphenylCO(4''-OnC5H11)}-[Orn(4R-OH,5R-OH)]T[Hyp][hTyr(3S-OH,4S-OH)]T[Pro(3S-OH,4S-Me)]; lactam 1-C) in the records?
### Response 8.75

----------
Tested on: SARS-CoV-2 (USA_WA1/2020)
test-description: microbe, parasite or virus in culture
Type: cell-based
condition-description: Severe acute respiratory syndrome coronavirus 2, Vero C1008, SARS-CoV-2 CPE assay, Vero E6 cells; confirmed anti-SARS-CoV-2 compounds; read-out: CPE EC50
Where a name gives a salt, the structure may show the parent alone.
value-kind: pEC50
Lab note: report pEC50 as minus log10 of the concentration in molar units, number only.

Below are worked cases with known answers.
| molecule | pEC50 |
| --- | --- |
| CCN(CC)CCOc1ccc2c(c1)C(=O)c1cc(OCCN(CC)CC)ccc1-2 [TILORONE] | 5.40 |
| COc1cc(N2CCN(C)CC2)ccc1Nc1nccc(-c2cn(C)c3cnccc23)n1 [AZ-191] | 5.05 |
| O=c1c2ccccc2[se]n1-c1ccccc1 [Ebselen] | 4.95 |
| Cc1nc(Nc2ccc(F)cc2)nc(N2CCc3ccccc3C2C)c1C (stereo not drawn) [Revaprazan HCl] | 5.30 |
| O=C(/C=C/c1ccccc1)NC(NC(=S)Nc1cccc2cccnc12)C(Cl)(Cl)Cl (stereo not drawn) [Salubrinal] | 5.00 |
| CC1CCCCN1CCCOC(=O)c1ccc(OC2CCCCC2)cc1 (stereo not drawn) [Cyclomethycaine] | 5.05 |
| Cc1cc(C2CCCCC2)n(O)c(=O)c1 [Ciclopirox] | 5.05 |
| CN(C)CCCN1c2ccccc2Sc2ccccc21 [Promazine hydrochloride] | 5.00 |

### Prompt Which value of pEC50 has been reported for c1ccc(-c2ccc(C(c3ccccc3)n3ccnc3)cc2)cc1 (stereo not drawn) [Bifonazole] in the records?
### Response 5.00

----------
System: Vero E6 cells
condition-description: cytotoxicity counter-assay, Vero E6 cells without virus
Where a SMILES comes first, the peptide text is derived from it. [ ]: non-standard residue; d: D form. Nle = CCCC[C@H](N)C(=O)O
// class assignment uses % Cytotox with these ranges: band 1: < 20%; band 2: ≥ 20% and < 40%; band 3: ≥ 40%

Consider the worked cases shown below.
| compound | category-label |
| --- | --- |
| Nc1nc2c(c(N3CC[C@@H](N)C3)n1)CCCc1ccccc1-2 | band 2 |
| CC(CN(C)C)CN1c2ccccc2Sc2ccccc21.CC(CN(C)C)CN1c2ccccc2Sc2ccccc21.O=C(O)C(O)C(O)C(=O)O (stereo not drawn) [Trimeprazine tartrate] | band 1 |
| Cl.O=C1Nc2nc(-c3c(O)cccc3OCC3CC3)cc([C@@H]3CCCNC3)c2CO1 [Bay-65-1942 hydrochloride] | band 2 |
| COc1cc2ncnc(Sc3nnc(C)s3)c2cc1OC | band 2 |
| COc1cc2c(Nc3ccc(NC(=O)c4ccccc4)cc3)ncnc2cc1OCCCN1CCOCC1 | band 2 |
| CC(C)c1cccc2c(-c3ccccc3)cc(-c3ccc(-c4ccc(C(=O)O)cc4)[nH]3)nc12 | band 1 |
| Cc1cc(CC(C)CC(C)(C)C)n(O)c(=O)c1.NCCO (stereo not drawn) | band 3 |
| CCN(CC)Cc1cccc(/C=C/c2nc3ccc(F)cc3c(=O)n2-c2ccccc2Cl)n1.Cl [CP 465022 hydrochloride] | band 3 |

### Prompt Which bin should I file "C[C@@H]1CN(CC(=O)N2CC(C)(C)c3ncc(Cc4ccc(F)cc4)cc32)[C@@H](CN2CCOC[C@H]2C)CN1" under?
### Response band 1

### Prompt Which bin should I file C[C@@H]1O[C@@H](O[C@H]2[C@H](OC(=O)[C@]34CCC(C)(C)C[C@H]3C3=CCC5[C@@]6(C)C[C@H](O)[C@H](O[C@@H]7O[C@H](CO[C@@H]8OC[C@H](O)[C@H](O)[C@H]8O)[C@@H](O)[C@H](O)[C@H]7O)C(C)(C)C6CC[C@@]5(C)[C@]3(C)C[C@H]4O)OC[C@@H](O)[C@@H]2O)[C@H](O)[C@H](O[C@@H]2OC[C@](O)(CO)[C@H]2O)[C@H]1O[C@@H]1OC[C@H](O)[C@H](O[C@@H]2OC[C@@H](O)[C@H](O)[C@H]2O)[C@H]1O (stereo partly drawn) under?
### Response band 2

### Prompt Which bin should I file CCCC[C@@H](C=O)NC(=O)[C@H](CC(C)C)NC(=O)[C@H](CC(C)C)NC(C)=O [Calpain Inhibitor I, ALLN, reference compound] (Ac-Leu-Leu-[Nle]-aldehyde) under?
### Response band 3

----------
Tested on: Vero E6 cells
condition-description: cytotoxicity counter-assay, Vero E6 cells without virus
The entries below are paired with their reported % Cytotox.
Field format: number, assumed %, no unit text.

Below are worked cases with known answers.
| molecule | value-unit | % Cytotox |
| --- | --- | --- |
| NC(=O)c1ccc2nc(-c3ccc(Oc4ccc(Cl)cc4)cc3)[nH]c2c1 [BML-277] | % | 33.9 |
| COc1cccc2c1CCCC2CCCN1CCN(C2CCCCC2)CC1 (stereo not drawn) [PB-28] | % | 19.5 |
| COc1ccc(CCNCc2ccc(OC)c3ccccc23)cc1 [SBI-0087702] | % | 24.6 |
| C[C@@H]1O[C@@H](O[C@H]2[C@H](OC(=O)[C@]34CCC(C)(C)C[C@H]3C3=CCC5[C@@]6(C)CC[C@H](O[C@@H]7O[C@H](CO[C@@H]8OC[C@H](O)[C@H](O)[C@H]8O)[C@@H](O)[C@H](O)[C@H]7O)C(C)(C)C6CC[C@@]5(C)[C@]3(C)C[C@H]4O)OC[C@@H](O)[C@@H]2O)[C@H](O)[C@H](O[C@@H]2OC[C@](O)(CO)[C@H]2O)[C@H]1O[C@@H]1OC[C@H](O)[C@H](O[C@@H]2OC[C@@H](O)[C@H](O)[C@H]2O)[C@H]1O (stereo partly drawn) [NCGC00385743] | % | 67.2 |
| Cc1cccc(Nc2nc(N[C@@H]3CCCC[C@@H]3N)ncc2C(N)=O)c1 [PRT-060318] | % | 45.2 |

### Prompt Which value of % Cytotox has been reported for CCc1cc(-c2n[nH]c(C)c2-c2ccc3c(c2)OCCO3)c(O)cc1O [CCT-018159] in the records?
### Response 34.2

----------
The entries below are paired with their reported CC50.
Test system: Vero E6 cells
condition-description: read-out: Cytotox CC50; cytotoxicity counter-assay, Vero E6 cells without virus
Field format: number, assumed µM, no unit text.

Below are worked cases with known answers.
| compound | CC50 [µM] |
| --- | --- |
| COc1cc2nc(N3CCCCC3)nc(NC3CCN(C)CC3)c2cc1OC | 10 |
| C=C1C(=O)O[C@H]2C3=C(C)CCC[C@]3(C)C(=O)C[C@@H]12 | 10 |

### Prompt Which value of CC50 has been reported for C[C@H](CCC(=O)O)C[C@H](C)C[C@H](C)C(=O)/C=C(\O)[C@H](C)C[C@H](C)C/C=C/[C@@H](C)[C@@H](O)[C@@H](C)[C@@H](O)C[C@@H]1CC[C@@](C)([C@H]2CC[C@@](C)([C@@H](C)O)O2)O1 [Ionomycin(Calciumsalt)] in the records?
### Response 6.95
